biological target: Ba/F3 ERBB2 A775_G776insYVMA (Homo sapiens, UniProt P04626, DUP772-775, cells depend on it); assay: Cell viability assay, Ba/F3 ERBB2 A775_G776insYVMA; type: cell-based, mouse; conditions: Ba/F3 ERBB2 YVMA cells, cell viability, 72 hours, CellTiter Glo; Table B5; read-out: Ba/F3 ERBB2 YVMA, IC50
Sequence (P04626 with tags, fused parts or gaps DUP772-775): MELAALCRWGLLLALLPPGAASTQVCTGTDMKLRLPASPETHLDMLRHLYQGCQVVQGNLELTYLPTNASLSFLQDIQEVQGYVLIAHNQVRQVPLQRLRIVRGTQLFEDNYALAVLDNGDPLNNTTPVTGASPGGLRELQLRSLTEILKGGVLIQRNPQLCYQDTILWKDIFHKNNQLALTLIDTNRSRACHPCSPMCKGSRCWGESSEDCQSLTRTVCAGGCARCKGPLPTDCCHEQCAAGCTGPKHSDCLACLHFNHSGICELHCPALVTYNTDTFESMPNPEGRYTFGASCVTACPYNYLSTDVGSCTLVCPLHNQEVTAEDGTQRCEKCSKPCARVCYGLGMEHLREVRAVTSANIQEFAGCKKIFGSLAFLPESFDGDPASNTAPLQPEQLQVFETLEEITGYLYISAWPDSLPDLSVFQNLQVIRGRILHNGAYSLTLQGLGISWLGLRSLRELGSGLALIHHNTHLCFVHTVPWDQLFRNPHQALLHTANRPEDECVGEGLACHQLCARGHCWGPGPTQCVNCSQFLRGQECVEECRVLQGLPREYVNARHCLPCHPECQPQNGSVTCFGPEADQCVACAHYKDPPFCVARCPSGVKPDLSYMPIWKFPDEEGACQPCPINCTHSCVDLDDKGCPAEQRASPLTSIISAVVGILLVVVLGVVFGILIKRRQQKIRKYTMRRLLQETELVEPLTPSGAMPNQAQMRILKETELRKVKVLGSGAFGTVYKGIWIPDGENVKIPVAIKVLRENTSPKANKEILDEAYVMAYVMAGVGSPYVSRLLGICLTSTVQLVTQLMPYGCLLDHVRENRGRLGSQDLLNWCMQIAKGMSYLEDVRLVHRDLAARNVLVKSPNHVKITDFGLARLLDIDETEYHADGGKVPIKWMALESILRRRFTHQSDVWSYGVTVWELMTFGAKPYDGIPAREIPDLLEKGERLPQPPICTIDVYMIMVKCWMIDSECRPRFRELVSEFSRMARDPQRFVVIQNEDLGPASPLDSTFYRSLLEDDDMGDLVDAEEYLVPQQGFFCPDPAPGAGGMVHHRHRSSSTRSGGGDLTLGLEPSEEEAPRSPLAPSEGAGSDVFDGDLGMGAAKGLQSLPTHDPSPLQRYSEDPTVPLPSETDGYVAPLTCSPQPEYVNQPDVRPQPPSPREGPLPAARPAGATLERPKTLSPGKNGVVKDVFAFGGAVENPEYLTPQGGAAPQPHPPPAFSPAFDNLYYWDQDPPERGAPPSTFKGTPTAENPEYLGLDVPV
We begin with a simple list: items and their reported GI50.
reported metric: GI50

- compound: "Cc1cc(Nc2ncnc3ccc(N4CC/C(=C\\[C@H]5CCCN5C)C4=O)nc23)ccc1Oc1ccn2ncnc2c1"
  reading: "10.8 nM"
- compound: "C=C1C(=O)N(c2ccc3ncnc(Nc4ccc(Oc5ccn6ncnc6c5)c(C)c4)c3c2)CC1CN(C)C (stereo not shown)"
  reading: "17.4 nM"
- compound: "Cc1cc(Nc2ncnc3ccc(N4CC/C(=C\\CN(C)C)C4=O)nc23)ccc1Oc1ccn(C(F)F)c(=O)c1"
  reading: "23 nM"
- compound: "Cc1cc(Nc2ncnc3cnc(N4CC/C(=C\\CN(C)C)C4=O)cc23)ccc1Oc1ccn2c(C)cnc2c1"
  reading: "6.39 nM"
- compound: "CN(C)C/C=C1\\CCN(c2ccc3ncnc(Nc4ccc(Oc5cccnc5)c(F)c4)c3n2)C1=O"
  reading: "34 nM"
- compound: "Cc1cc(Nc2ncnc3ccc(N4CC(C)C(=CCN(C)C)C4=O)nc23)ccc1Oc1ccn2ncnc2c1 (single isomer, unassigned) [Example S98, Enantiomer #2]"
  reading: "71.2 nM"
- compound: "C=C1CCN(c2cc3c(Nc4ccc(Oc5ccn6ncnc6c5)c(C)c4)ncnc3cn2)C1=O"
  reading: "5.32 nM"
